- procedure.text: small-molecule microarray binders of probe aEGFR, primary screen, biochemical, biotinylated probe, 635/667 nm fluorescence (AID 1097);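 also: probe is a biotinylated anti-EGFR antibody binding compounds printed on slides; score combines fluorescence near 667 nm and signal to noise of each spot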
- particulars: higher = more signal
Assign class by composite z-score: not lower than -0.03 means Fulfilled; lower than -0.03 means Not fulfilled.

These recorded examples may help you get a feel for the data.
Q: Is composite z-score at least -0.03? Consider [N-]=[N+]=NCc1ccccc1[C@H]1OC(c2ccc(OCCCO)cc2)=N[C@@]1(Cc1ccccc1)C(=O)N1CCOCC1
Ans: Fulfilled

Q: # check: composite z-score of C=CCC(OC(C)=O)[C@@H]1[C@@H](N(Cc2ccc(-c3cccc(C(F)(F)F)c3)o2)C(=O)Cc2ccc(F)cc2)c2cc(OCCCO)ccc2N1C(=O)c1ccc2ccccc2c1 (stereo not given in full) is greater than or equal to -0.03
Ans: Fulfilled

Q: Textbook exercise: given the entry COC(=O)[C@@]1(Cc2ccc(OC)cc2)[C@H]2c3cc(C(=O)N4CCCC4)n(CCc4ccc(OC)c(Br)c4)c3C[C@H]2CN1C(=O)c1ccccc1 , state whether its composite z-score is greater than or equal to -0.03.
Ans: Not fulfilled

Q: Can CN(C)CCCCNC(=O)[C@H]1C[C@H]2C(=O)NCC(=O)N2[C@H]1c1cccc(OCCO)c1 be said to have composite z-score at or above -0.03?
Ans: Not fulfilled

Q: Would you say CC(C)(C)OC(=O)CC[C@]1(C(=O)N2CCOCC2)N=C(c2ccc(OCCCO)cc2)O[C@H]1c1ccccc1CN=[N+]=[N-] shows composite z-score at minimum -0.03?
Ans: Not fulfilled

Next:
Q: Entry COc1ccc(NN2C(C(O)c3ccc(OC)cc3)C=CC3C(=O)N(C4CCCCC4)C(=O)C32)cc1 (stereo not given) : is its composite z-score no less than -0.03?
Ans: Fulfilled

Q: Identify whether the reported composite z-score of the following compound is -0.03 or greater: C=CC[C@]1(C(=O)NCc2ccccc2)COC(c2ccc(OCCCO)cc2)=N1
Ans: Not fulfilled

Q: Is it the case that CCOC(=O)C[C@H]1[C@H](OC(=O)Cc2ccc3c(c2)OCO3)[C@@H](NC(=O)c2ccccc2)c2cc(OCCCO)ccc2N1C(=O)Cc1ccc(OC)cc1 has composite z-score reaching or exceeding -0.03?
Ans: Not fulfilled

Q: Hi, just wondering whether COCCOC(=O)N1C(=O)[C@@]2(c3ccccc31)[C@H](C(N)=O)[C@H]1C(=O)O[C@H](c3ccccc3)[C@H](c3ccccc3)N1[C@@H]2c1ccc(OCCO)cc1 shows composite z-score of -0.03 or higher.
Ans: Not fulfilled

Q: Does composite z-score meet or surpass -0.03 for CC1CC/C=C\[C@H]2OC34C=CCN(CCN5CCOCC5)C(=O)[C@H]3N(CCCCCCO)C(=O)[C@@H]4C2C(=O)O1 (stereo not given in full) ?
Ans: Not fulfilled

Q: Does the reported composite z-score for C=CC[C@]1(C(=O)NCCCOC)N=C(c2ccc(OCCCO)cc2)O[C@H]1c1ccccc1 fall at or above the -0.03 mark?
Ans: Not fulfilled
